- system-tested: Fuc(a1-2)[GalNAc(a1-3)]Gal(b1-4)[Fuc(a1-3)]GlcNAc(b1-3)GalNAc
- protocol-details: glycan array binding signal (z-score within array); higher = stronger binding
- particulars: glycan notation: IUPAC condensed, linker removed
About 410 targets per protein were measured; listed, in parts, are those with the strongest signals and a random draw of the rest.
Below, each of the binders is paired with its reported glycan array binding signal (z-score) value.

binder | glycan array binding signal (z-score)
CLEC5A (Homo sapiens), Q9NY25 (protein) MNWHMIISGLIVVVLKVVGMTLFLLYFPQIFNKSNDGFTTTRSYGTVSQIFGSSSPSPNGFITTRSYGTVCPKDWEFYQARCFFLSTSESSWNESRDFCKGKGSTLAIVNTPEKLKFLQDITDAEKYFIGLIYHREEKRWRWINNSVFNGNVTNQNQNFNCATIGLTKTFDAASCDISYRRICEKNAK | 2.38
AT5G24760(45) (Arabidopsis thaliana), Q8LEB2 (protein) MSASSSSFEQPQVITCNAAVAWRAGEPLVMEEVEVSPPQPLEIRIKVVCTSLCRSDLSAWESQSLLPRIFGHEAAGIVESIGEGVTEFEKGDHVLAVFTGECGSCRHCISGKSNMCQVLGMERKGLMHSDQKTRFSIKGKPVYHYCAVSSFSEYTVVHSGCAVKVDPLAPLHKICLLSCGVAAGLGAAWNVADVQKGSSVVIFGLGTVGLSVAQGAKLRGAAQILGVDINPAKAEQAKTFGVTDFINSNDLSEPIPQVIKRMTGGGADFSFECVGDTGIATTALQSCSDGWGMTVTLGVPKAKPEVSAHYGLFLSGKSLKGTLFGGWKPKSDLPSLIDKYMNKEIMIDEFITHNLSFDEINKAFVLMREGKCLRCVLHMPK | 6.82
CFEM-SCL (Saccharomyces cerevisiae), O13547 (protein) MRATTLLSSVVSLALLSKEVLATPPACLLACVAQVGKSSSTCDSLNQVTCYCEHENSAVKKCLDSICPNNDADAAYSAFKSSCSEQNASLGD | 2.67
Gal 2 (Homo sapiens), P05162 (protein) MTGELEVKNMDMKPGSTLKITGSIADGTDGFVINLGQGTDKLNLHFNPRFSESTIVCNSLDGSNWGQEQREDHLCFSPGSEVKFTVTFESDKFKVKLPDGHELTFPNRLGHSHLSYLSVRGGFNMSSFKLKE | -0.08
